# assay system: Bile acid receptor (Homo sapiens) (UniProt Q96RI1)
# Sequence (Q96RI1 whole entry, looked up): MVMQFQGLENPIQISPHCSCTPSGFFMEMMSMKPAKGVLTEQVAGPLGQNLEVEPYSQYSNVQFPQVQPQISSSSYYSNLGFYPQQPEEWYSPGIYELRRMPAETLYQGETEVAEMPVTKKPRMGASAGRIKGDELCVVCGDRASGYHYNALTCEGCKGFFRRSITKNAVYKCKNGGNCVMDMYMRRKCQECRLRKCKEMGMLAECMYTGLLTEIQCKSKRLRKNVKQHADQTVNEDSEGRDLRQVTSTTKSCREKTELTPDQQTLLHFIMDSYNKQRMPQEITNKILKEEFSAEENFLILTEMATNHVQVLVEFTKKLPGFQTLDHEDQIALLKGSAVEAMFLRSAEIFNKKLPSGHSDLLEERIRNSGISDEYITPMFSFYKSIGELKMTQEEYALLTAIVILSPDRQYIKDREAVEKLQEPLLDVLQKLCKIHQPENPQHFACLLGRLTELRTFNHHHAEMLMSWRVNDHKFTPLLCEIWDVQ
# procedure text: OT_FXR_FXRSRC1_1440: Odyssey Thera (OT) 24-hour HEK293T Protein-Complementation Assay for Farnesoid X receptor/SRC-1 Co-activator (AID 2283384)
Inconclusive results are not listed. Active and inactive are the calls of the source. Rule for the calls: active = hit-call score of the fitted dose curve at least 0.9, where 1 is the maximum; inconclusive = response in the unintended direction; inactive = score below 0.9.
Can you answer with just one of these options? active, inactive

Observe how each entry below is paired with its result.
CC12CCC(C1)C(C)(C)C2O (stereo not drawn)	inactive
O=C1OC2(c3ccc(O)cc3Oc3cc(O)ccc32)c2ccccc21	active
CCCCCCCCOS(=O)(=O)O	inactive

Asked: Kindly provide the recorded test outcome for the following compound: CCC(=O)OC(C)(C)C1CC=C(C)CC1 (stereo not drawn)
Given back: inactive

Asked: Kindly provide the recorded test outcome for the following compound: CCCc1ccc(O)cc1
Given back: inactive

Asked: Kindly provide the recorded test outcome for the following compound: c1ccc(Cc2ccccc2)cc1
Given back: inactive

Asked: Kindly provide the recorded test outcome for the following compound: CCCCC/C=C\C=C\C(=O)OCC
Given back: active

Asked: Kindly provide the recorded test outcome for the following compound: CC1=CCC(C(C)(C)O)CC1 (stereo not drawn)
Given back: inactive

Asked: Kindly provide the recorded test outcome for the following compound: CC(=O)CC(=O)N(C)C
Given back: inactive

Asked: Kindly provide the recorded test outcome for the following compound: CC(=O)C1C(=O)C=C(C)OC1=O (stereo not drawn)
Given back: inactive

Asked: Kindly provide the recorded test outcome for the following compound: CC(=O)c1ccc2ccccc2c1
Given back: inactive

Asked: Kindly provide the recorded test outcome for the following compound: OC[C@H]1O[C@@H](O[C@H]2[C@H](O)[C@@H](O)[C@H](O)O[C@@H]2CO)[C@H](O)[C@@H](O)[C@H]1O
Given back: inactive

Asked: Kindly provide the recorded test outcome for the following compound: CC1COC(=O)O1 (stereo not drawn)
Given back: inactive

* * *

# procedure text: CCTE_Shafer_MEA_acute_burst_number: CCTE's Neural Acute Assay for Single-Electrode Bursts, Shafer Lab (AID 2284013)
Active and inactive are the calls of the source. How the source made its calls: active means hit-call score of the fitted dose curve at least 0.9, where 1 is the maximum; inactive means score below 0.9.
measured parameter: AC50

Solved entries:
CC(C)(CO)CO	inactive
CCCO[Si](OCCC)(OCCC)OCCC	inactive
CC(C)CCCC(C)(C)O	inactive
CC(=O)c1ccc(C)cc1	0.003 µM (active)
O=C(c1ccc(OCCN2CCCCC2)cc1)c1c(-c2ccc(O)cc2)sc2cc(O)ccc12	11.2 µM (active)

Continue with the compound presented below.
Asked: Param item = c1ccc(OCCOc2ccccc2)cc1 ; retrieve measured AC50.
Given back: inactive

* * *

# assay system: Aryl hydrocarbon receptor (Homo sapiens) (UniProt P35869)
# Sequence (P35869 whole entry, looked up): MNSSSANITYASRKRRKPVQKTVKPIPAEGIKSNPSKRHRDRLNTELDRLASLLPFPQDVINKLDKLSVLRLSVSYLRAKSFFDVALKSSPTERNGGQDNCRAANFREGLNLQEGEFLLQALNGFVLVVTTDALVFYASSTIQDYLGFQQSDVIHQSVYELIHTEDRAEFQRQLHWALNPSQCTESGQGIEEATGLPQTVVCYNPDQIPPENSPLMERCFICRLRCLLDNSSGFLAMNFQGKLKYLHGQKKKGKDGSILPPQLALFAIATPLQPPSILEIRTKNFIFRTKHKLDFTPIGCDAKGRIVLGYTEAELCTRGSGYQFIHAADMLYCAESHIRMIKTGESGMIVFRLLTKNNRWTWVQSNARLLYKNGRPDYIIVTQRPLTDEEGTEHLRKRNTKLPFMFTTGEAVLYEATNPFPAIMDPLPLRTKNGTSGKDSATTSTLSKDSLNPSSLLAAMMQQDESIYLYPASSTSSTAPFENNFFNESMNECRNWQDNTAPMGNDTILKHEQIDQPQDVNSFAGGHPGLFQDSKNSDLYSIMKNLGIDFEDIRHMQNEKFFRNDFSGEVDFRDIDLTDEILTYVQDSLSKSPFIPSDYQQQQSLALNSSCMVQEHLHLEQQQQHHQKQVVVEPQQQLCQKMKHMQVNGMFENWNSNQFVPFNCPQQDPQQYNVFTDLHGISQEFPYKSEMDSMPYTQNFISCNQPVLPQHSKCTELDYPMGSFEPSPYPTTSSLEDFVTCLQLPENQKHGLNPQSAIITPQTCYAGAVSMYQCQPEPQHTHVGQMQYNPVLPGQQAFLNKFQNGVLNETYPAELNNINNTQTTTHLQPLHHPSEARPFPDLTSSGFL
# procedure text: ATG_Ahr_CIS: Attagene CIS-FACTORIAL HepG2 Assay for human Aryl Hydrocarbon Receptor (Ahr) (AID 2282930)
# test parameters: HepG2 AhR cis-factorial reporter transcription; actives raise or lower the signal
Activity calls are given as the source filed them. How the source made its calls: active means hit-call score of the fitted dose curve at least 0.9, where 1 is the maximum; inactive means score below 0.9.
Can you answer with just one of these options? yes = active, no = inactive

CC(CO)c1ccccc1 (stereo not given)	no

Asked: Kindly provide the recorded test outcome for the following compound: c1ccc2scnc2c1
Given back: yes

Asked: Kindly provide the recorded test outcome for the following compound: OCCN1CCOCC1
Given back: no

Asked: Kindly provide the recorded test outcome for the following compound: CN(C)C
Given back: no

Asked: Kindly provide the recorded test outcome for the following compound: [Na+]
Given back: no

Asked: Kindly provide the recorded test outcome for the following compound: C=CC(=O)OCC(CO)(COC(=O)C=C)COC(=O)C=C
Given back: no

Asked: Kindly provide the recorded test outcome for the following compound: C1COCO1
Given back: no

Asked: Kindly provide the recorded test outcome for the following compound: CC(=N[Si](C)(C)C)O[Si](C)(C)C
Given back: no

Asked: Kindly provide the recorded test outcome for the following compound: CC1=C(C=O)C(C)(C)CCC1
Given back: no

Asked: Kindly provide the recorded test outcome for the following compound: [Cl][Dy]([Cl])[Cl]
Given back: no

Asked: Kindly provide the recorded test outcome for the following compound: CCC(C)(C)C1CCC(=O)CC1
Given back: no

Asked: Kindly provide the recorded test outcome for the following compound: CC=CC(=O)C1=C(C)C=CCC1(C)C
Given back: no
